Each entry below lists one item and its recorded Percent Effect value.
Test system: Mycobacterium tuberculosis
Experiment: Cornell M. t heat shock assay; note: in the data most compounds retested in dose-response had high values
Format: functional, organism-based
Set-up: dose or concentration left out as unconfirmed
About 950 (1.4%) of roughly 69,000 compounds showed an effect of 50% or more. The sample as a whole holds a higher share of strong results than the screen did.
Be sure to follow the number with its unit.

Consider the worked cases shown below.
{"COMPOUND": "CCN(CC)Cc1nc2c(o1)CN(S(=O)(=O)c1cccs1)C2.O=C(O)C(F)(F)F", "SYSTEM": "Mycobacterium tuberculosis", "Percent Effect": "10.46%"}
{"COMPOUND": "O=C(O)C(F)(F)F.O=C1COC2(CCN(CC3CCC3)CC2)CN1c1cncnc1", "SYSTEM": "Mycobacterium tuberculosis", "Percent Effect": "-21.31%"}
{"COMPOUND": "CCN1CCN(C)C(=O)C12CCN(C(=O)Cc1ccccn1)CC2.O=C(O)C(F)(F)F", "SYSTEM": "Mycobacterium tuberculosis", "Percent Effect": "3.493%"}
{"COMPOUND": "Cc1nc(C2CN(Cc3scnc3C)CCO2)cc(N(C)C)n1 (configuration not stated)", "SYSTEM": "Mycobacterium tuberculosis", "Percent Effect": "-20.95%"}
{"COMPOUND": "c1nnc(Nc2cncc(C3CCCN3CC3CC3)n2)s1 (configuration not stated)", "SYSTEM": "Mycobacterium tuberculosis", "Percent Effect": "103.4%"}
{"COMPOUND": "O=C(O)C(F)(F)F.O=C(O)C(F)(F)F.c1cncc(C2COC3(CCN(CC4CCOCC4)CC3)C2)c1 (configuration not stated)", "SYSTEM": "Mycobacterium tuberculosis", "Percent Effect": "-13.27%"}

Value of Percent Effect reported for the compound Cc1nc(Nc2nncs2)cc(C2CCCN2C)n1 (configuration not stated) is -13.41%

Value of Percent Effect reported for the compound CC(Cn1ccnc1)NCc1cc(Br)c2c(c1)OCO2.Cl (configuration not stated) is -15.88%

Value of Percent Effect reported for the compound CN1C(=O)CCC12CCCN(C(=O)c1ccncc1F)C2.O=C(O)C(F)(F)F (configuration not stated) is 38.17%

Value of Percent Effect reported for the compound O=C(O)C(F)(F)F.O=C(c1c[nH]cn1)N1CCC(F)(F)C2(CCN(c3cccc(F)c3)C2)C1 (configuration not stated) is 53.67%

Value of Percent Effect reported for the compound CCOCCCn1c(NC(=O)c2scnc2C)nc2ccccc21 is 84.26%

Value of Percent Effect reported for the compound CN1CC(=O)N(c2ccsc2)CC12CCN(C(=O)N1CCCC1)C2.O=C(O)C(F)(F)F (configuration not stated) is -15.35%

====

Each entry below lists one item and its recorded Percent Effect value.
System: Mycobacterium tuberculosis
Assay: Cornell M. t heat shock assay; note: in the data most compounds retested in dose-response had high values
Format: functional, organism-based
Design: dose or concentration left out as unconfirmed
Screen size: about 69,000 compounds; about 950 (1.4%) showed an effect of 50% or more. The entries come from a sample that favours strong results as a whole.
Be sure to follow the number with its unit.

{"MOLECULE": "COCCC(C)NS(=O)(=O)c1ccc(C)c(N(C)C)c1 (stereo not given)", "Percent Effect": "1.91%"}
{"MOLECULE": "CCOc1ccc(C2C3=C(O)OCC3=Nc3nc(SC)nc(N)c32)cc1 (stereo not given)", "Percent Effect": "5.942%"}
{"MOLECULE": "CCCN(CC(=O)N1CCNCC1)C(=O)c1cccc(Cl)c1.O=C(O)C(F)(F)F", "Percent Effect": "0.5334%"}
{"MOLECULE": "COCCN1C[C@@H]2[C@@H](OC)CCN(Cc3ccsc3)[C@@H]2C1.O=C(O)C(F)(F)F.O=C(O)C(F)(F)F", "Percent Effect": "-56.24%"}
{"MOLECULE": "CC(C)CCN1C[C@H]2C[C@H](C(=O)N3CCCC3)[C@@H](C1)O2.O=C(O)C(F)(F)F", "Percent Effect": "37.85%"}
{"MOLECULE": "COCc1nn(C(C)C)c2c1CCN(Cc1nccs1)C2.O=C(O)C(F)(F)F", "Percent Effect": "-16.62%"}

Value of Percent Effect reported for the molecule CN(C)[C@@H]1CCN(C(=O)CC2CC2)[C@H]1Cc1cnn(C)c1.O=C(O)C(F)(F)F is 1.412%

Value of Percent Effect reported for the molecule CCN1C(=O)CCC12CCCN(Cc1nccs1)CC2.O=C(O)C(F)(F)F (stereo not given) is -119%

Value of Percent Effect reported for the molecule CCCN(CC1CC1)C(=O)CN1CCCC1c1cnn(C)c1 (stereo not given) is 3.305%

Value of Percent Effect reported for the molecule Cc1cc(CCC(=O)N(C)C)nc(C2CCCCN2)n1.Cl.Cl (stereo not given) is -7.222%

====

Each entry below lists one item and its recorded Percent Effect value.
System: Mycobacterium tuberculosis
Experiment: Cornell M. t heat shock assay; note: in the data most compounds retested in dose-response had high values
Type: functional, organism-based
Design: dose or concentration left out as unconfirmed
About 950 (1.4%) of roughly 69,000 compounds showed an effect of 50% or more. The sample as a whole holds a higher share of strong results than the screen did.
Hi! Could you send only the number? It should be in %, unit omitted.

{"COMPOUND": "Cc1ccc(Oc2c(F)cccc2OC[C@@H](N)CC(C)C)cc1", "VALUE OBSERVED": 104.6}

Value of Percent Effect reported for the compound COc1nc2cc(C)ccc2cc1CN(C)Cc1cc(C)[nH]n1.O=C(O)CC(O)(CC(=O)O)C(=O)O is -1.641

Value of Percent Effect reported for the compound O=C(c1cccc2cccnc12)N1CC[C@@]2(CCCO2)[C@@H](O)C1 is 50.53

Value of Percent Effect reported for the compound Cc1ccc(OCC(=O)N2CCCC(n3nc(C)nc3C)C2)cc1 (stereo not drawn) is -13.19

Value of Percent Effect reported for the compound COCC(=O)N1CCCCC1c1ccnc(Nc2ncc(C)s2)n1 (stereo not drawn) is -16.88

Value of Percent Effect reported for the compound CC(NCCCN1CCCC1=O)c1cc(Br)ccc1F (stereo not drawn) is 13.95

Value of Percent Effect reported for the compound CC(NCCN1CCC(N(C)C)CC1)c1ccc(F)cc1N(C)C (stereo not drawn) is -14.59

Value of Percent Effect reported for the compound CC(C)C[C@H](N)COc1cccc(F)c1Oc1cccc(Cl)c1 is 103.9

Value of Percent Effect reported for the compound CC(CNS(N)(=O)=O)Oc1cccc(Cl)c1 (stereo not drawn) is -31.66

Value of Percent Effect reported for the compound c1cncc(-c2nc3c(c(NCC4(c5ccncc5)CC4)n2)CCC3)c1 is -38.69

Value of Percent Effect reported for the compound Cc1noc(C2CCN(C(=O)CCNc3ncccn3)CC2)n1 is 13.08

Value of Percent Effect reported for the compound O=C(Nc1cccc(F)c1)C1CCCN1c1nccs1 (stereo not drawn) is 8.306

Value of Percent Effect reported for the compound O=C(c1cccnc1O)N1CCC2(CCCO2)CC1 is -109.6

Value of Percent Effect reported for the compound Cc1noc(C2CCN(C(=O)CCc3nccs3)CC2)n1 is 51.73

Value of Percent Effect reported for the compound CNCc1cc(F)ccc1Oc1ccc(Cl)cc1 is -7.892

Value of Percent Effect reported for the compound CC(NCCCN1CCCC1=O)c1ccc(F)cc1N(C)C (stereo not drawn) is 87.91

Value of Percent Effect reported for the compound Cc1cnc(Nc2cccc(C3CCCN3C(=O)CO)n2)s1 (stereo not drawn) is -6.272

Value of Percent Effect reported for the compound O=C(O)C(F)(F)F.O=C([C@@H]1CCO[C@@H]2CCN(CCc3ccccc3)C[C@@H]21)N1CCCC1 is -24.53

Value of Percent Effect reported for the compound COCCNC(=O)[C@@H]1C[C@@H]2CCN(c3ncccn3)C[C@H]2O1.O=C(O)C(F)(F)F is -37.39

====

Each entry below lists one item and its recorded Percent Effect value.
Test system: Mycobacterium tuberculosis
Assay: Cornell M. t heat shock assay; note: in the data most compounds retested in dose-response had high values
Format: functional, organism-based
Design: dose or concentration left out as unconfirmed
About 950 (1.4%) of roughly 69,000 compounds showed an effect of 50% or more. The sample as a whole holds a higher share of strong results than the screen did.
Hi! Could you send only the number? It should be in %, unit omitted.

Value of Percent Effect reported for the compound Cc1ccc(C(=O)Nc2cn[nH]c2)cc1 is -8.204

Value of Percent Effect reported for the compound Clc1cccc(N2CCC(NCc3cc[nH]n3)C2)c1 (centres undefined) is -2.653

Value of Percent Effect reported for the compound CCn1ccnc1CNCc1ccc(C)cc1OC(C)(C)C is 55.22

Value of Percent Effect reported for the compound CCn1ccnc1CNc1nccc(-c2c(C)nn(C)c2C)n1 is 4.641

Value of Percent Effect reported for the compound O=C(NC1CCCN(c2ccc(OC(F)F)cc2)C1)c1cnccn1 (centres undefined) is 27.97

Value of Percent Effect reported for the compound COc1ccc(OC)c([C@@H]2N[C@H](c3nccs3)Cc3ccsc32)c1 is 6.308

Value of Percent Effect reported for the compound Cc1ccc(C(C)NCCc2nccn2Cc2ccccc2)o1 (centres undefined) is -11.63

Value of Percent Effect reported for the compound COCc1nc(-c2ccnc(N3CCNCC3)n2)no1.Cl.Cl is 24.05

Value of Percent Effect reported for the compound CCc1ccc(C(C)NCc2nccn2Cc2ccccc2)o1 (centres undefined) is 91.1

Value of Percent Effect reported for the compound CN(C)c1ccnc(C2CCCN2)n1.Cl (centres undefined) is -9.101

Value of Percent Effect reported for the compound COCCCNC(=O)CN(C)C(=O)c1cc(Cl)ccc1O is 100.8

Value of Percent Effect reported for the compound Cc1ccc(CNC(=O)NCc2nccn2C)c(OC(C)(C)C)c1 is 2.123

Value of Percent Effect reported for the compound Cc1ccc(C(=O)N2CC[C@@H]3CN(C4CCOCC4)CCO[C@@H]3C2)o1.O=C(O)C(F)(F)F is 5.788

Value of Percent Effect reported for the compound Clc1cccc(N2CCC(NCc3ncc[nH]3)C2)c1 (centres undefined) is 62.08

Value of Percent Effect reported for the compound COCCCNC(=O)CN(C)C(=O)c1ccccc1O is -10.97

Value of Percent Effect reported for the compound COCCC(=O)N1CC2(CCN(Cc3ccccc3Cl)CC2)C1.O=C(O)C(F)(F)F is 12.96

Value of Percent Effect reported for the compound Cc1noc(C)c1C(=O)NCc1ccnc(OCC(F)(F)F)c1 is 0.8028

Value of Percent Effect reported for the compound Cc1cnn(CCNCc2nc(-c3ccsc3)oc2C)c1 is -4.227

Value of Percent Effect reported for the compound Cc1ccc(C(=O)Nc2nc(C)no2)cc1 is 75.29

Value of Percent Effect reported for the compound O=C(O)C(F)(F)F.O=C(c1ccco1)N1CCO[C@@H]2CN(CC3CC3)CC[C@@H]2C1 is -6.108

Value of Percent Effect reported for the compound COc1cc([C@@H]2N[C@H](c3nccs3)Cc3ccsc32)cc(OC)c1OC is -5.187

Recorded values, source ChEMBL document CHEMBL3988442.
